B1: HDV Ribozyme (parent)
chain: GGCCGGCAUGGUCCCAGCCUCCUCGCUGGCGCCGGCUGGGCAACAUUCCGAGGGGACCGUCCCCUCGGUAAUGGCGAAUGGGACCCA

- Variants of: B1
- measurement_notes: self-cleavage, relative activity (ratio to wild type); higher = more cleavage; co-transcriptional
readout_name: self-cleavage

sequence="GGCCGGCAUGGUCUCAGCCUCCUCGCUGGCGCCGGCUGGGCAACAUUCCGAGGGGACCCUCCCCUCGGUAAUGGCGAAUGGGACCCA [C14U G59C]" observed_measurement=1.01
sequence="GGCCGGCAUGGUCCCAGCCUCCUCGCUGGCGCCGGCUGGGCAACAUUCCGAGGGGACCGUCCCCUCGGUAAUGACGAAUGGCACCCA [G74A G82C]" observed_measurement=0.249
sequence="GGCCGGCAUGGUCCCAGCCUCCUCGCUGGCGCCGGCUGGGCAACAUUCCGAGGGGACCGCCCCCUCGGUAAUGGCGGAUGGGACCCA [U60C A77G]" observed_measurement=0.831
sequence="GGCCGGCAUGGUCCCAGCCUCCUCGCUGGCGCCGGCUGGGCAACAUUCCGAGGGGACCGUCCCCUCGGUAAUGGUGAAUGGGACACA [C75U C85A]" observed_measurement=0.0959
sequence="GGCCGGCAUGGUCCCAGCCUACUCGCUUGCGCCGGCUGGGCAACAUUCCGAGGGGACCGUCCCCUCGGUAAUGGCGAAUGGGACCCA [C21A G28U]" observed_measurement=0.196
